Values from patent US20130224224A1

Please go through the items and note down their % block.
Target: T1, cynomolgus CX3CR1 (cynomolgus, UniProt P49238 1-355 (human entry))
T1 construct: transiently expressed on HEK293T cells; also called cyCX3CR1; cyno CX3CR1
T1 chain: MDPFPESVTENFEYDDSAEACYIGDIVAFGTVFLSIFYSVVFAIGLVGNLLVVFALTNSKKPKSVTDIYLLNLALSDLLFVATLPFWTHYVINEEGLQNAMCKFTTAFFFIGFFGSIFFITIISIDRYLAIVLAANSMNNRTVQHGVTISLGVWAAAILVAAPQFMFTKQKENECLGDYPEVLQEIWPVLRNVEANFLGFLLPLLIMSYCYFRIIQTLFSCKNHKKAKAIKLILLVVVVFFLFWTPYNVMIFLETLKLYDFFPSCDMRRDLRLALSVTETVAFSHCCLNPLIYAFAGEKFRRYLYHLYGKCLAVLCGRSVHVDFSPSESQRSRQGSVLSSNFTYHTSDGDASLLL
Assay: A647-fractalkine competition FACS, HEK293T cynomolgus CX3CR1
Protocol: Periplasmic extracts were screened in a human CX3CR1/human Fractalkine FACS competition assay to assess the blocking capacity of the expressed VHHs. Human CX3CR1 was presented on CHO cells overexpressing CX3CR1. […] After one hour incubation at 4 C, cells were washed three times before read out was performed on a FACS Array (Becton Dickinson). First a gate was set on the intact cells as determined from the scatter profile. […]
Answers are plain numbers, in %.

Worked examples, 4 binders total:
Sample CX3CR1BIIPMP61B2 (VHH, also called 61B02; not shown: C-terminal c-myc and His6 tags) VHH: EVQLVESRGGSVQAGASLRLSCAASGSIFSSNAMAWYRQAPGKQRDLVAVINTVGITKYADSVKGRFTISRDNAKNTVYLQMNSLKPEDTAVYYCTSDARRGWDTRYWGQGTQVTVSS — what was its % block?
92

Record: CX3CR1BIIPMP66G01 (VHH, also called CX3CR1BII66G01; not shown: C-terminal c-myc and His6 tags) VHH: EMQLVESGGGSVQAGESLRLSCAASGSIFSSNAMAWYRQAPGKQRDLVALINSVGITKYADSVKGRFTISRDNAKNTVYLQMNSLKPEDTAVYYCTSDGRRGWDTRYWGQGTQVTVSS
100

Record: CX3CR1BIIPMP54A4 (VHH, also called 54A04; not shown: C-terminal c-myc and His6 tags) VHH: EVQLVESGRGSVQAGESLRLSCAASGSIFSSNAMAWYRQAPGKQRDLVAGINSVGITKYADSVKGRFTISRDNAKNTVYLQMNSLKPEDTAVYYCTSDPRRGWDTRYWGQGTQVTVSS
91

Record: CX3CR1BIIPMP54B3 (VHH, also called 54B03; not shown: C-terminal c-myc and His6 tags) VHH: EVQLVESGGGSVQAGESLRLSCAASGSIFSSNAMAWYRQAPGKQRDLVAAINSVGITKYADSVKGRFTISRDNAKNTVYLQMNSLKPEDTAVYYCTSDPRRGWDTRYWGQGTQVTVSS
95

Attention now shifts to the item below.
Sample CX3CR1BIIPMP54D5 (VHH, also called 54D05; CX3CR1BII54D5; not shown: C-terminal c-myc and His6 tags) VHH: EVQLVESGGGSVQAGESLRLSCAASGSIFSSNAMAWYRQAPPGKQRDLVALINSVGITKYADSVKGRFTISSDNAKNTVYLEMNSLKPEDTAVYYCTSDGRRGWDTRYWGQGTQVTVSS — what was its % block?
91
